tested on: A2780; experiment: Cytotoxicity against human A2780 cells assessed as cell survival after 96 hrs by SRB assay; type: functional, cell-based; conditions: A2780, 96 h
Quick list: IC50 per entry.
Value Kind: IC50 (µM)

INSERT INTO assay_data (mol, value_kind, val) VALUES
  ('C[C@H]1[C@H](C)CC[C@]2(C)CC[C@]3(C)C(=CC(=O)[C@@H]4[C@@]5(C)CC[C@@H](O)[C@](C)(C(=O)O)[C@@H]5CC[C@]43C)[C@H]12', 'IC50', 37.9),
  ('COC(=O)[C@@]1(C)C=CC[C@@]2(C)[C@H]1CC[C@]1(C)[C@@H]2C(=O)C=C2[C@@H]3[C@@H](C)[C@H](C)CC[C@]3(C)CC[C@]21C', 'IC50', 40.1),
  ('COC(=O)[C@@]1(C)[C@@H](C(=O)O)CC[C@@]2(C)[C@H]1CC[C@]1(C)[C@@H]2C(=O)C=C2[C@@H]3[C@@H](C)[C@H](C)CC[C@]3(C)CC[C@]21C', 'IC50', 35.4);
